The values you see were collected from PubChem BioAssay (NCI).

Tested on: NCI-H23 lung
protocol summary: NCI-60 one-dose screen, 48 h (100 = growth as untreated, 0 = no growth, -100 = all killed)
run conditions: 10 µM
Compounds without any hit were thinned out: in the full panel of roughly 83,000, 20% have a hit.
experimental readout: growth (%)
I only need the number, in %, no unit after it.

COc1cc(-c2cc(-c3cc(OC)c(OC)c(OC)c3)nc3nc(N)[nH]c(=O)c23)ccc1Oc1ccnc2cc(Cl)ccc12 = 42.1
COc1ccc(NC(=O)c2sc3nc4c(cc3c2N)C(O)CCC4)cc1 (stereo not given) = 98.5
Cc1cc(C(C)(C)CC(C)(C)C)ccc1OCCOCC[N+](C)(C)Cc1ccccc1 = -20

Enquiry: Recall and state the measured growth for O=C(O)CN1C(=O)C=CC1=O .
Return: 106

Enquiry: Recall and state the measured growth for Cn1c(=O)c2[nH]c(C(O)c3ccc(Cl)cc3)nc2n(C)c1=O (stereo not given) .
Return: 98.8

Enquiry: Recall and state the measured growth for O=C(O)CNS(=O)(=O)c1ccc(OCCOc2ccc(S(=O)(=O)NCC(=O)O)cc2)cc1 .
Return: 95.9

Enquiry: Recall and state the measured growth for O=C(CCCC(=O)N/N=C/c1cc(Cl)ccc1O)N/N=C\c1cc(Cl)ccc1O .
Return: 38.4

Enquiry: Recall and state the measured growth for COc1ccc(C2C=C(c3ccc(Cl)c(Cl)c3)N=C3SC(C)=CN32)cc1OC (stereo not given) .
Return: 64

Enquiry: Recall and state the measured growth for CCCCCCCCCCCC(c1ccccc1)N(C)C (stereo not given) .
Return: 102

Enquiry: Recall and state the measured growth for O=NN(CCCl)C(=O)Nc1ccc(NC(=O)N(CCCl)N=O)cc1 .
Return: 107

====

System: UO-31 renal
protocol summary: NCI-60 one-dose screen, 48 h (100 = growth as untreated, 0 = no growth, -100 = all killed)
run conditions: 10 µM
About 83,000 compounds went through this panel and 20% of them were active in at least one assay; those are over-represented in the sample as a whole.
Please mark Fulfilled if the recorded growth is equal to or greater than 40%, and Not fulfilled if it falls below.

CCCCCCCCCCCCCCCCn1cc[n+](C)c1 = Not fulfilled
COc1cccc(C2(C)Nc3ccccc3-c3nc4ccccc4n32)c1 (stereo unspecified) = Fulfilled
CC(C)(C)CC(C)(C)c1ccc(O)c(Cc2ccc(Cl)cc2Cl)c1 = Not fulfilled
O=C1/C(=C/c2ccc(O)cc2)Oc2ccc(Cl)cc21 = Not fulfilled
O=c1[nH]c(=O)n(C2C[C@@H](O)[C@@H](CO)O2)cc1F (stereo partly specified) = Not fulfilled

Consider the record given below.
Enquiry: hey, is growth for this one >= 40%? COc1ccc2nc(NC(=O)Nc3c(F)cccc3F)sc2c1
Return: Fulfilled

====

Item-by-item account of growth
Test system: UACC-257 melanoma
protocol summary: NCI-60 one-dose screen, 48 h (100 = growth as untreated, 0 = no growth, -100 = all killed)
run conditions: 10 µM
Compounds without any hit were thinned out: in the full panel of roughly 83,000, 20% have a hit.
I only need the number, in %, no unit after it.

The cases that follow already have their growth on record.
N#Cc1cnc2ccc(NCc3cnc[nH]3)cc2c1Nc1ccc(F)c(Cl)c1 = 84.3
Cc1nc(N)sc1Sc1nc2ccc(Cl)cc2c(=O)n1-c1ccc(Oc2ccccc2)cc1 = 75.7
COc1ccc(-c2csc(-c3cc(Cl)cc(Cl)c3Cl)n2)cc1 = 46.2

Now look at this one.
Enquiry: Recall and state the measured growth for COc1cccc(C2(C)Nc3ccccc3-c3nc4ccccc4n32)c1 (configuration not stated) .
Return: 110

====

Test system: NCI-H226 lung
protocol summary: NCI-60 one-dose screen, 48 h (100 = growth as untreated, 0 = no growth, -100 = all killed)
run conditions: 10 µM
Procedure: Growth inhibition of the NCI-H226 human Non-Small Cell Lung tumor cell line is measured as a screen for anti-cancer activity. Cells are grown in 96 well plates and exposed to the test compound for 48 hours. Compounds are tested at a single concentration, which is 10^-5 M for most compounds. The reported endpoint is percent growth (GI% or GIPRCNT), where numbers from 0 - 100% represent growth inhibition, and numbers from -100% - 0 represent cell death. […]
Compounds without any hit were thinned out: in the full panel of roughly 83,000, 20% have a hit.
Item-by-item account of growth
I only need the number, in %, no unit after it.

The cases that follow already have their growth on record.
C#CCNCCN1C(=O)c2ccc3c4c(ccc(c24)C1=O)C(=O)N(CCNCC#C)C3=O = 20.9
COc1ccccc1NC1=C(N2CCCCC2)C(=O)c2ccccc2C1=O = 84.5
COc1cc(C2CC(=O)Nc3c2c(C)nn3-c2nc3ccccc3[nH]2)cc(OC)c1O (stereo not drawn) = 66
CCc1ccc(-c2nnc(COc3ccc(-c4nc5ccc(C)cc5[nH]4)cc3OC)o2)cc1 = 48.6
Oc1ccc(Cn2cc3c(c2-c2ccccc2)CCc2cnoc2-3)cc1 = 96.4
Nc1ccccc1NC(=O)CCCCCCC(=O)Nc1ccc2c(c1)/C(=C/c1ccc[nH]1)C(=O)N2 = 45.5
CCOC(=O)Nc1ccc2c(c1)C(=O)N(CCOC)c1ccccc1O2 = 77.1
Cc1nc2scc(-c3ccc(Cl)cc3)n2c(=O)c1CCN1CCOCC1 = 94.6
Nc1nc2c(nnn2C2CC(O)C(CO)O2)c(=O)[nH]1 (stereo not drawn) = 50
CCOC(=O)CSC(=S)SCC(=O)OCC = 106

Enquiry: Write down measured growth (NCI-H226 lung) for this compound. CC1(CO)CCCC12OCCO2 (stereo not drawn)
Return: 99.7

Enquiry: Write down measured growth (NCI-H226 lung) for this compound. O=C1c2cc(Cl)ccc2-c2c(O)cc(Cl)cc21
Return: 94

Enquiry: Write down measured growth (NCI-H226 lung) for this compound. N#Cc1ccc(-n2cnc(NC(=O)[C@H]3CCN(C#N)C3)c2)cc1
Return: 26.4

Enquiry: Write down measured growth (NCI-H226 lung) for this compound. COc1ccc(-c2n/c(=C\c3c(O)[nH]c4ccccc34)cc3c2=Nc2ccccc2-3)cc1
Return: 59.7

Enquiry: Write down measured growth (NCI-H226 lung) for this compound. COc1ccc(-c2[nH]ncc2-c2cc(OC)c(OC)c(OC)c2)cc1
Return: 58.7

Enquiry: Write down measured growth (NCI-H226 lung) for this compound. O=C(c1ccccc1)C(Nc1ccccc1)c1ccccc1 (stereo not drawn)
Return: 82.7

====

Tested on: HOP-62 NSCLC
protocol summary: NCI-60 one-dose screen, 48 h
run conditions: 10 µM
Compounds without any hit were thinned out: in the full panel of roughly 83,000, 20% have a hit. Activity calls are given as the source filed them. How the source made its calls: active means growth percent below 10; inactive means the rest.
// one of true for active, false for inactive, no free text

Use these answered entries as a reference point.
C=CCNCCCN1C(=O)c2ccc3c4c(ccc(c24)C1=O)C(=O)N(CCCNCC=C)C3=O = true
Oc1cc(O)c(Br)cc1Br = false
COc1cc(C2C=C(c3ccc(Cl)c(Cl)c3)N=C3SC(C)=CN32)cc(OC)c1OC (stereo unspecified) = false
Oc1ccc(/C=N\Nc2ccccn2)c(O)c1 = true
Cc1ccc(S(=O)(=O)Oc2ccccc2-c2ccccc2)cc1 = false

Enquiry: Fill in: this test's call for COc1ccc(C(=O)n2nc(CC(=O)NCc3ccccc3)nc2N)cc1 is ___
Return: false

Enquiry: Fill in: this test's call for CCOC(=O)c1c(O)c2cc(-c3ccccc3)nc(OCC)c2c(=O)n1C is ___
Return: false

Enquiry: Fill in: this test's call for CCOC(=O)C(=O)Cc1cccnn1 is ___
Return: false

Enquiry: Fill in: this test's call for O=C1/C(=C/c2ccc(O)cc2)Cc2ccc(Cl)cc21 is ___
Return: false

Enquiry: Fill in: this test's call for CCSc1nc2c([nH]1)c(=O)n(C)c(=S)n2C is ___
Return: false

Enquiry: Fill in: this test's call for CC(C)c1[nH]nc2c(NCc3ccc(-c4ccccn4)cc3)nc(SCCN(C)C)nc12 is ___
Return: true

Enquiry: Fill in: this test's call for COc1ccc(C2=NNC(c3sc(Cl)nc3Cl)C2)cc1 (stereo unspecified) is ___
Return: false

Enquiry: Fill in: this test's call for O/N=C1\CCC2CCCCC2C1 (stereo unspecified) is ___
Return: false

====

Test system: SK-MEL-2 melanoma
protocol summary: NCI-60 one-dose screen, 48 h (100 = growth as untreated, 0 = no growth, -100 = all killed)
run conditions: 10 µM
This is part of a sample that, as a whole, favours compounds with a hit. Of some 83,000 tested, about 20% had one in any assay.
Please mark fulfilled if the recorded growth is equal to or greater than 50%, and not fulfilled if it falls below.

Use these answered entries as a reference point.
FC(F)(F)c1ccc(-c2cnc(Cl)nc2NC2CCCCCC2)cc1 = not fulfilled
CCCCCC(=O)N1c2ccccc2NC2=C(C(=O)CC(c3ccc(OC)c(OC)c3)C2)C1c1ccc(C(F)(F)F)cc1 (stereo not given) = not fulfilled
O=c1cc(CSc2nnc(-c3ccccc3)n2-c2ccc(F)cc2)c2ccc3ccccc3c2o1 = fulfilled

Enquiry: hey, is growth for this one >= 50%? Nc1nc2c(nnn2C2CC(O)C(CO)O2)c(=O)[nH]1 (stereo not given)
Return: not fulfilled

Enquiry: hey, is growth for this one >= 50%? O=NN(CCCl)C(=O)Nc1ccc(NC(=O)N(CCCl)N=O)cc1
Return: fulfilled
